Molecular target: M3 muscarinic receptor subtype (hM3) (Homo sapiens, UniProt P20309)
Sequence (P20309 whole entry): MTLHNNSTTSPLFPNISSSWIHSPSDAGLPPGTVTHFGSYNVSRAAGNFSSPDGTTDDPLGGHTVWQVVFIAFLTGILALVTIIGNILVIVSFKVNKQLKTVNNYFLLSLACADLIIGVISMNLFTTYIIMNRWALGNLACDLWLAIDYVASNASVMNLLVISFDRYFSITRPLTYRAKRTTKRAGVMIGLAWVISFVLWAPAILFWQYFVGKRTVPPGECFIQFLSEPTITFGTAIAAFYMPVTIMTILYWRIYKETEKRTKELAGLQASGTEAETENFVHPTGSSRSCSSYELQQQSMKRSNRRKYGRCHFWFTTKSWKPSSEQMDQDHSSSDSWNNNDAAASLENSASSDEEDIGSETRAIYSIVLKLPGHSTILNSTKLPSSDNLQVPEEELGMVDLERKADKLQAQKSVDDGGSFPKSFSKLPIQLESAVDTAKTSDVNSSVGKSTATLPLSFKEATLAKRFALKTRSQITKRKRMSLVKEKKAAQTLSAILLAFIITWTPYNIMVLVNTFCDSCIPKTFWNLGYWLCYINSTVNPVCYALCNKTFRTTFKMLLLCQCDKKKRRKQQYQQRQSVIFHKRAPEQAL
ATTRIBUTE MEASURED: Ki

Input line: Determine reported Ki for O=C(Nc1ccccc1-c1ccccc1)OC1CCN(CCCN2CCN(CCCNCc3ccc(O)cc3)C2=O)CC1 ; test system: M3 muscarinic receptor subtype (hM3) (Homo sapiens, UniProt P20309).
Output line: < 5 nM
